The reported numbers originate from paper PMC5145767.

Biological target: DKaiR1D (Drosophila melanogaster, UniProt Q9VDH5)
Type: cell-based
Details: Xenopus oocytes, -60 mV; ligands of b17 all applied at 10 mM

- COMPOUND: "N[C@@H](Cn1oc(=O)[nH]c1=O)C(=O)O [quisqualate, quisqualic acid]"
  activation of DKaiR1D: "produced activation"
- COMPOUND: "N[C@@H](CCC(=O)O)C(=O)O [glutamate]"
  activation of DKaiR1D: "produced activation"
- COMPOUND: "C=C(C)[C@H]1CN[C@H](C(=O)O)[C@H]1CC(=O)O [kainate]"
  activation of DKaiR1D: "produced activation"

----------
Tested on: DKaiR1D ligand-binding domain
Parameters: species or system Drosophila melanogaster
Conditions: ligand 1 mM, trypsin 1:20, 60 min
OBSERVABLE: protection from digestion by trypsin

- MOLECULE: "CN[C@H](CC(=O)O)C(=O)O"
  TARGET_DESC: "DKaiR1D ligand-binding domain"
  MEASURED: "protective"
- MOLECULE: "NC(CCCP(=O)(O)O)C(=O)O (centres unmarked)"
  TARGET_DESC: "DKaiR1D ligand-binding domain"
  MEASURED: "protective"
